- Tested on: TK-10
- assay-overview: NCI tumour cell line growth inhibition, 48 h
The source made the active and inactive calls. Rule as the data show it: active = GI50 up to about 1.1 µM and inactive = higher.
readout-name: GI50

molecule=Cc1ccc(CCCC(=O)O)cc1C reported_result="> 100 µM (inactive)"
molecule=O=C(NCCCN1CCN(CCCNC(=O)c2cc(-c3ccccc3)nc3ccccc23)CC1)c1cc(-c2ccccc2)nc2ccccc12 reported_result="27.3 µM (inactive)"
molecule="CCOc1ccc(C2Oc3c(cccc3OC)C=C2[N+](=O)[O-])cc1OCC (centres undefined)" reported_result="15.5 µM (inactive)"
molecule=O=[N+]([O-])c1cc(Cl)cc2cc(Br)cnc12 reported_result="27.7 µM (inactive)"

* * *

- Test system: SNB-78
- assay-overview: NCI tumour cell line growth inhibition, 48 h
Active and inactive are the calls of the source. Cut-off read from the data, not from the text of the source: active = GI50 up to about 1.1 µM and inactive = higher.
Quick list: GI50 per entry.
readout-name: GI50

compound=c1ccc2c(CNCCCCCCCCCCCCNCc3cccc4ccccc34)cccc2c1 readout_name=GI50 reported_result="1.9 µM (inactive)"
compound=O=c1cc(-c2ccccc2F)[nH]c2cc3c(cc12)OCO3 readout_name=GI50 reported_result="0.23 µM (active)"
compound=CN1C(=O)N(c2nc3ccccc3[nH]2)C(C)(C)C1=O readout_name=GI50 reported_result="> 100 µM (inactive)"
compound="O=c1c2ccccc2nc(-c2cccc(Cl)c2)n1NCC1(O)OCC(O)C(O)C1O (centres undefined)" readout_name=GI50 reported_result="> 100 µM (inactive)"

* * *

- Tested on: NCI-H460
- assay-overview: NCI tumour cell line growth inhibition, 48 h
The source made the active and inactive calls. No stated cut-off is given here; in the data, active = GI50 up to about 1.1 µM and inactive = higher.
readout-name: GI50

compound="CCOC(=O)CCC1(C(=O)OCC)CCCCC1=O (stereo not given)" readout_name=GI50 reported_result="> 100 µM (inactive)"
compound=CCCC[Si](CCCC)(CCCC)O[C@@H](/C=C/C(=O)OCC)[C@H](Cc1ccccc1)O[Si](CCCC)(CCCC)CCCC readout_name=GI50 reported_result="> 100 µM (inactive)"
compound=CCOC(=O)C(=C(SC)SC)c1nn2c(=O)cc(C)nc2s1 readout_name=GI50 reported_result="24 µM (inactive)"
compound=COC(=O)N1C[C@@]2(C=CC3(CC2)OCCO3)c2ccccc21 readout_name=GI50 reported_result="90.4 µM (inactive)"
compound=Cn1/c(=N\c2ccc(Cl)cc2)sc2ccccc21 readout_name=GI50 reported_result="40.7 µM (inactive)"
compound=CSc1cc(Cl)c(C)cc1S(=O)(=O)NC(=O)NNc1ccccn1 readout_name=GI50 reported_result="> 100 µM (inactive)"
compound=CC(C)(Oc1ccc(Cl)cc1)C(=O)N(C(=O)N1CCC(c2ccccc2)CC1)c1ccccc1 readout_name=GI50 reported_result="16 µM (inactive)"
compound="OC(C1CCCC1=N/N=C1/CCCC1C(O)(C(F)(F)Cl)C(F)(F)Cl)(C(F)(F)Cl)C(F)(F)Cl (stereo not given)" readout_name=GI50 reported_result="> 10 µM (inactive)"
compound="S=C=NCCc1ccccc1 [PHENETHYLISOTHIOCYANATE]" readout_name=GI50 reported_result="0.0973 µM (active)"
compound="Brc1cc(CCOC2CCCCO2)c(-c2sccc2CCOC2CCCCO2)s1 (stereo not given)" readout_name=GI50 reported_result="33.4 µM (inactive)"
compound=COc1ccc2c(c1)CC[C@@H]1[C@@H]2CC[C@]2(C)C(=O)/C(=C/c3ccc(OC)c(OC)c3)C[C@@H]12 readout_name=GI50 reported_result="> 100 µM (inactive)"
compound="CC1(/C=C/CCSc2ccccc2)CC(=O)C2CC1C2(C)C (stereo not given)" readout_name=GI50 reported_result="17.3 µM (inactive)"
compound=CCOC(=O)c1cn(CC)c2ccc3c(c2c1=O)S(=O)(=O)C=C3 readout_name=GI50 reported_result="> 100 µM (inactive)"
compound=Nc1ccc(S(=O)(=O)Nc2cnc3ccccc3n2)cc1 readout_name=GI50 reported_result="> 100 µM (inactive)"
compound=COc1ccc(NC(=O)C(=O)NNC(=O)c2sc(NNC(C)=O)nc2C)c([N+](=O)[O-])c1 readout_name=GI50 reported_result="> 100 µM (inactive)"
compound=O=C(NC(C(F)(F)F)(C(F)(F)F)P(=O)(c1ccccc1)c1ccccc1)C(C(F)(F)F)C(F)(F)F readout_name=GI50 reported_result="42.3 µM (inactive)"
compound=COc1ccc(-c2cs/c(=N\c3ccccc3)n2CCCN(C)C)cc1 readout_name=GI50 reported_result="23.8 µM (inactive)"
compound="N#Cc1cc([N+](=O)[O-])ccc1NC(=O)/C(=N\\NC(=O)c1ccncc1)C(c1cnc2ccc([N+](=O)[O-])cc2n1)[N+](=O)[O-] (stereo not given)" readout_name=GI50 reported_result="2.13 µM (inactive)"
compound="Cc1[nH]n(-c2ccccc2)c(=O)c1C(N(CCc1ccccc1)C1=NCC(C)S1)(C(F)(F)F)C(F)(F)F (stereo not given)" readout_name=GI50 reported_result="13.9 µM (inactive)"
compound="O=C(O)C(NCc1ccccc1)C(NCc1ccccc1)C(=O)O (stereo not given)" readout_name=GI50 reported_result="> 100 µM (inactive)"
